Data provenance: paper PMC9482650

Molecular target: T1, DLG3_1, Q92796
T1 sequence (Q92796 125-227, limits assumed, looked up): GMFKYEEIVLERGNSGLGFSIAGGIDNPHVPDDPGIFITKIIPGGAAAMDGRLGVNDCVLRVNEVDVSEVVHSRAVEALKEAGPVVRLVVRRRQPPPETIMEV
Assay: holdup assay
Set-up: key: below the threshold = too weak to quantify, mostly under pKd 3.1 to 4
Details: plain residues with an end cap or a label only (N-terminal biotin on a linker: ttds)
assay_endpoint: pKd

binder="KLVIKTETTV [RASSF6, Q6ZTQ3]" result=4.52
binder="QRPYRRESEI [KCNJ12, Q14500]" result="below the threshold"
binder="DLDEEEDTHL [PODXL, O00592]" result="below the threshold"
binder="GRLLGLETNV [ARHGEF26, Q96DR7]" result=4.13
binder="PPRQRSETQV [HPV82-E6, Q9IR59]" result=4.12

pKd in this record for SRSRRRETAL [HPV33-E6, P06427] : 3.79

pKd in this record for SHSSKGETAV [FZD7, O75084] : 4.01
